Give measured inhibition at 50 µM for each item. Keep answers brief.
tested-on: Neuraminidase (from Clostridium perfringens, Type V) immobilized on magnetic beads (NA-MBs) (Clostridium perfringens)
Sequence (A0A0H2YQR1 42-694 limits assumed): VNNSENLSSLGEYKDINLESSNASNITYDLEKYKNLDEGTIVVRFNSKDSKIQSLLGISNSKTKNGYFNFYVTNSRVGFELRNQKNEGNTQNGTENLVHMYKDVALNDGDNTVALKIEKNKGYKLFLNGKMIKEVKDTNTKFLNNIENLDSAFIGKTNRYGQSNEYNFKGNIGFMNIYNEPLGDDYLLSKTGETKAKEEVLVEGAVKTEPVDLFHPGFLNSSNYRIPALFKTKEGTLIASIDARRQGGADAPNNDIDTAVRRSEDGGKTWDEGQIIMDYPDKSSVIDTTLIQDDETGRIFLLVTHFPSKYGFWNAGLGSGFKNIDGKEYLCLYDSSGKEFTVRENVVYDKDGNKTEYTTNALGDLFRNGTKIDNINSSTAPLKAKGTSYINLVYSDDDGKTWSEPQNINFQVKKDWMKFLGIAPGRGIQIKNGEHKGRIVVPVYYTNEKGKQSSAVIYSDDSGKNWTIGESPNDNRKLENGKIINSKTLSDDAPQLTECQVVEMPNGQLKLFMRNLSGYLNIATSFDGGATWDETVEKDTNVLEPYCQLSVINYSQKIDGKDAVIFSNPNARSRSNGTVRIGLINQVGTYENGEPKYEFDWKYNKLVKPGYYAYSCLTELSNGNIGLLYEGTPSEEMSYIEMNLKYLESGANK
experiment: biochemical
test-conditions: 0.05 h, read-out: Inhibitory ratio (%)
The answer is to be given in %; state only the numeric part.

INPUT: Give the measured inhibition at 50 µM of CCOC(=O)C1=C[C@@H](OC(CC)CC)[C@H](NC(C)=O)[C@@H](N)C1 .
OUTPUT: 74.9

INPUT: Could you tell me which inhibition at 50 µM is on file for O=c1c(O)c(-c2ccc(O)c(O)c2)oc2cc(O)cc(O)c12 ?
OUTPUT: 48.1

INPUT: State the recorded inhibition at 50 µM for this entry: O=c1c(O[C@@H]2O[C@H](CO)[C@H](O)[C@H](O)[C@H]2O)c(-c2ccc(O)c(O)c2)oc2cc(O)cc(O)c12 [Hyperoside]
OUTPUT: 32.3

INPUT: Quick check: inhibition at 50 µM of COc1ccc(-c2oc3cc(O)cc(O)c3c(=O)c2O)cc1 [Kaempferide] ?
OUTPUT: 43.6

INPUT: I have this molecule here, COc1cc(-c2oc3cc(O)cc(O)c3c(=O)c2O)ccc1O , and I need its recorded inhibition at 50 µM.
OUTPUT: 46.8

INPUT: Which inhibition at 50 µM value belongs to O=c1c(O)c(-c2ccc(O)cc2)oc2cc(O)cc(O)c12 ?
OUTPUT: 51.2

The origin of these recorded values is paper PMC6261295.
